PROCEDURE TEXT: Antiproliferative activity against human WSU HN-30 cells assessed as inhibition rate at 0.1 uM incubated for 72 hrs by MTT assay relative to control
Type: functional
COND: WSU-HN30
TEST READOUT: inhibition at 0.1 µM (%)

| SMILES CODE | TEST READOUT | MEASURED VALUE |
| --- | --- | --- |
| COc1cc2c(NC(=O)C(F)(F)[C@]3(O)O[C@@H]4CO[C@@H](c5ccsc5)O[C@H]4[C@H](O)[C@H]3O)c3c(c(-c4ccc5c(c4)OCO5)c2cc1OC)C(=O)OC3 | inhibition at 0.1 µM | 14 |
| COc1cc2c(O[C@@H]3O[C@@H]4CO[C@@H](c5ccco5)O[C@H]4[C@H](O)[C@H]3O)c3c(c(-c4ccc5c(c4)OCO5)c2cc1OC)C(=O)OC3 | inhibition at 0.1 µM | 45.7 |
| COc1cc2c(NC(=O)C(F)(F)[C@]3(O)O[C@H](CO)[C@@H](O)[C@H](O)[C@H]3O)c3c(c(-c4ccc5c(c4)OCO5)c2cc1OC)C(=O)OC3 | inhibition at 0.1 µM | 12.3 |
| COc1cc2c(O[C@@H]3O[C@@H]4CO[C@@H](c5ccc(C)s5)O[C@H]4[C@H](O)[C@H]3O)c3c(c(-c4ccc5c(c4)OCO5)c2cc1OC)C(=O)OC3 | inhibition at 0.1 µM | 40.1 |
| COc1cc2c(NC(=O)C(F)(F)[C@]3(OCc4ccccc4)O[C@H](COCc4ccccc4)[C@@H](OCc4ccccc4)[C@H](OCc4ccccc4)[C@H]3OCc3ccccc3)c3c(c(-c4ccc5c(c4)OCO5)c2cc1OC)C(=O)OC3 | inhibition at 0.1 µM | 8.5 |
| COc1cc2c(O[C@@H]3O[C@@H]4CO[C@@H](C5CCOCC5)O[C@H]4[C@H](O)[C@H]3O)c3c(c(-c4ccc5c(c4)OCO5)c2cc1OC)C(=O)OC3 | inhibition at 0.1 µM | 28.9 |
| CCC(CC)[C@@H]1OC[C@H]2O[C@@H](Oc3c4c(c(-c5ccc6c(c5)OCO6)c5cc(OC)c(OC)cc35)C(=O)OC4)[C@H](O)[C@@H](O)[C@@H]2O1 | inhibition at 0.1 µM | 38.3 |
| COc1cc2c(OCCOCCN)c3c(c(-c4ccc5c(c4)OCO5)c2cc1OC)C(=O)OC3 | inhibition at 0.1 µM | 34.2 |
| COc1cc2c(O[C@@H]3O[C@@H]4CO[C@@H](c5cccs5)O[C@H]4[C@H](O)[C@H]3O)c3c(c(-c4ccc5c(c4)OCO5)c2cc1OC)C(=O)OC3 | inhibition at 0.1 µM | 41.3 |
| COc1cc2c(OCCOCCNC(=O)C3(F)CNC3)c3c(c(-c4ccc5c(c4)OCO5)c2cc1OC)C(=O)OC3 | inhibition at 0.1 µM | 10.7 |
| COc1cc2c(OCCOCCNC(=O)[C@H]3[C@@H]4CNC[C@@H]43)c3c(c(-c4ccc5c(c4)OCO5)c2cc1OC)C(=O)OC3 | inhibition at 0.1 µM | 6.67 |
| COc1cc2c(O[C@@H]3O[C@@H]4CO[C@@H](c5ccsc5)O[C@H]4[C@H](O)[C@H]3O)c3c(c(-c4ccc5c(c4)OCO5)c2cc1OC)C(=O)OC3 | inhibition at 0.1 µM | 65.5 |

---

PROCEDURE TEXT: Cytotoxicity against human L02 cells incubated for 72 hrs by MTT assay
Format: toxicity, cell-based
TEST READOUT: IC50 at 72 h (µM)

| MOLECULE | VALUE PREFIX | MEASURED VALUE |
| --- | --- | --- |
| COc1cc([C@@H]2c3cc4c(cc3[C@@H](O[C@@H]3O[C@@H]5CO[C@@H](C)O[C@H]5[C@H](O)[C@H]3O)[C@H]3COC(=O)[C@H]23)OCO4)cc(OC)c1O [ETOPOSIDE] | > | 10 |
| COc1cc2c(O[C@@H]3O[C@@H]4CO[C@@H](c5ccco5)O[C@H]4[C@H](O)[C@H]3O)c3c(c(-c4ccc5c(c4)OCO5)c2cc1OC)C(=O)OC3 | > | 10 |
| COc1cc2c(O[C@@H]3O[C@@H]4CO[C@@H](c5csc(Br)c5)O[C@H]4[C@H](O)[C@H]3O)c3c(c(-c4ccc5c(c4)OCO5)c2cc1OC)C(=O)OC3 | = | 3.68 |
| COc1cc2c(O[C@@H]3O[C@@H]4CO[C@@H](c5ccsc5)O[C@H]4[C@H](O)[C@H]3O)c3c(c(-c4ccc5c(c4)OCO5)c2cc1OC)C(=O)OC3 | > | 10 |
| COc1cc2c(O[C@@H]3O[C@@H]4CO[C@@H](C5CCCCC5)O[C@H]4[C@H](O)[C@H]3O)c3c(c(-c4ccc5c(c4)OCO5)c2cc1OC)C(=O)OC3 | = | 4.67 |

---

PROCEDURE TEXT: Antiproliferative activity against human L02 cells assessed as inhibition rate at 0.1 uM incubated for 72 hrs by MTT assay relative to control
Format: toxicity, cell-based
TEST READOUT: inhibition at 72 h, 0.1 µM (%)

| COMPOUND | MEASURED VALUE |
| --- | --- |
| COc1cc2c(OCCOCCNC(=O)C3=C[C@H](O)[C@H](O)[C@@H](O)C3)c3c(c(-c4ccc5c(c4)OCO5)c2cc1OC)C(=O)OC3 | 5.67 |
| COc1cc2c(O[C@@H]3O[C@@H]4CO[C@@H](c5ccc(SC)cc5)O[C@H]4[C@H](O)[C@H]3O)c3c(c(-c4ccc5c(c4)OCO5)c2cc1OC)C(=O)OC3 | 6.84 |
| COc1cc2c(NC(=O)C(F)(F)[C@]3(OCc4ccccc4)O[C@H](COCc4ccccc4)[C@@H](OCc4ccccc4)[C@H](OCc4ccccc4)[C@H]3OCc3ccccc3)c3c(c(-c4ccc5c(c4)OCO5)c2cc1OC)C(=O)OC3 | 3.29 |
| COc1cc2c(NC(=O)C(F)(F)[C@]3(O)O[C@@H]4CO[C@@H](c5ccsc5)O[C@H]4[C@H](O)[C@H]3O)c3c(c(-c4ccc5c(c4)OCO5)c2cc1OC)C(=O)OC3 | 3.32 |
| COc1cc2c(OCCOCCNC(=O)C3CNCC(F)(F)C3)c3c(c(-c4ccc5c(c4)OCO5)c2cc1OC)C(=O)OC3 (stereo unspecified) | 10.6 |
| COc1cc2c(OCCOCCN)c3c(c(-c4ccc5c(c4)OCO5)c2cc1OC)C(=O)OC3 | 18.3 |

---

Test system: SCC-9
PROCEDURE TEXT: Antiproliferative activity against human SCC-9 cells assessed as inhibition rate at 0.1 uM incubated for 72 hrs by MTT assay relative to control
Assay type: functional

| COMPOUND | inhibition at 0.1 µM / % |
| --- | --- |
| COc1cc2c(OCCOCCNC(=O)C3=C[C@H](O)[C@H](O)[C@@H](O)C3)c3c(c(-c4ccc5c(c4)OCO5)c2cc1OC)C(=O)OC3 | 22.2 |
| COc1cc2c(OCCOCCNC(=O)[C@@H]3CC(F)(F)CN3)c3c(c(-c4ccc5c(c4)OCO5)c2cc1OC)C(=O)OC3 | 35.3 |
| COc1cc2c(OCCN)c3c(c(-c4ccc5c(c4)OCO5)c2cc1OC)C(=O)OC3 | 30.4 |
| COc1cc2c(OCCOCCNC(=O)C3CNCC(F)(F)C3)c3c(c(-c4ccc5c(c4)OCO5)c2cc1OC)C(=O)OC3 (configuration not stated) | 25.6 |
| COc1cc2c(O[C@@H]3O[C@@H]4CO[C@@H](c5ccco5)O[C@H]4[C@H](O)[C@H]3O)c3c(c(-c4ccc5c(c4)OCO5)c2cc1OC)C(=O)OC3 | 52.9 |
| COc1cc2c(OCCOCCNC(=O)CON)c3c(c(-c4ccc5c(c4)OCO5)c2cc1OC)C(=O)OC3 | 18.7 |
| COc1cc2c(O[C@@H]3O[C@@H]4CO[C@@H](c5ccsc5)O[C@H]4[C@H](O)[C@H]3O)c3c(c(-c4ccc5c(c4)OCO5)c2cc1OC)C(=O)OC3 | 76.3 |

---

# inhibition at 72 h, 0.1 µM annotations
PROCEDURE TEXT: Antiproliferative activity against human L02 cells assessed as inhibition rate at 0.1 uM incubated for 72 hrs by MTT assay relative to control
Format: toxicity, cell-based
TEST READOUT: inhibition at 72 h, 0.1 µM (%)

| SMILES CODE | UNIT ABBREVIATION | MEASURED VALUE |
| --- | --- | --- |
| COc1cc2c(OCCOCCNC(=O)CON)c3c(c(-c4ccc5c(c4)OCO5)c2cc1OC)C(=O)OC3 | % | 9.46 |
| COc1cc2c(OCCN)c3c(c(-c4ccc5c(c4)OCO5)c2cc1OC)C(=O)OC3 | % | 7.89 |
| COc1cc2c(OCCOCCNC(=O)[C@@H]3CCC(=O)N3)c3c(c(-c4ccc5c(c4)OCO5)c2cc1OC)C(=O)OC3 | % | 6.04 |
| COc1cc2c(O[C@@H]3O[C@@H]4CO[C@@H](c5ccco5)O[C@H]4[C@H](O)[C@H]3O)c3c(c(-c4ccc5c(c4)OCO5)c2cc1OC)C(=O)OC3 | % | 5.23 |
